This section presents compounds with their documented TGI values.
- System: OVCAR-4 ovarian
- experimentalProtocol: NCI tumour cell line growth inhibition, 48 h

{"chemicalSmiles": "O=C1/C(=C/c2ccccc2)CN(C(=O)CCN2CCCC2)C/C1=C\\c1ccccc1", "TGI": "4.78 µM"}
{"chemicalSmiles": "CN1CCc2c1nc(-c1ccc(Cl)cc1)c1c2N(C)CC1", "TGI": "> 100 µM"}
{"chemicalSmiles": "CC(=O)OCC(=O)[C@@]12OC(C)(C)O[C@@H]1C[C@H]1[C@@H]3CC(C=O)=C4C=C(OCCCl)CC[C@]4(C)[C@@]3(F)[C@@H](O)C[C@@]12C", "TGI": "> 100 µM"}
